assay.procedure: Particle size distribution by Malvern Mastersizer S particle size analyzer
Format: physicochemical
conditions.used: after milling 1 hour, Specac Specamill, three agate balls, maximum amplitude; listed as Cinacalcet hydrochloride from Example 4, hydrochloride
readout.name: AFTER MILLING D[v, 0..5] (µm)
Please state the figure in µm; there is no need to write the unit.

Recorded result, C[C@@H](NCCCc1cccc(C(F)(F)F)c1)c1cccc2ccccc12.Cl [Example 4, cinacalcet hydrochloride] , AFTER MILLING D[v, 0..5]: 25.7

* * *

assay.procedure: Particle size distribution by Malvern Mastersizer S particle size analyzer
Type: physicochemical
conditions.used: after milling 1 hour, Specac Specamill, three agate balls, maximum amplitude; listed as Cinacalcet hydrochloride from Example 4, hydrochloride
readout.name: AFTER MILLING D[v, 0.9] (µm)
Please state the figure in µm; there is no need to write the unit.

Recorded result, C[C@@H](NCCCc1cccc(C(F)(F)F)c1)c1cccc2ccccc12.Cl [Example 4, cinacalcet hydrochloride] , AFTER MILLING D[v, 0.9]: 91.8
